tgt: human TRPM8 (Homo sapiens, UniProt Q7Z2W7)
Construct: expressed in transfected cells; host or cells: CHO (p658 mammalian expression vector)
Sequence (Q7Z2W7 whole entry): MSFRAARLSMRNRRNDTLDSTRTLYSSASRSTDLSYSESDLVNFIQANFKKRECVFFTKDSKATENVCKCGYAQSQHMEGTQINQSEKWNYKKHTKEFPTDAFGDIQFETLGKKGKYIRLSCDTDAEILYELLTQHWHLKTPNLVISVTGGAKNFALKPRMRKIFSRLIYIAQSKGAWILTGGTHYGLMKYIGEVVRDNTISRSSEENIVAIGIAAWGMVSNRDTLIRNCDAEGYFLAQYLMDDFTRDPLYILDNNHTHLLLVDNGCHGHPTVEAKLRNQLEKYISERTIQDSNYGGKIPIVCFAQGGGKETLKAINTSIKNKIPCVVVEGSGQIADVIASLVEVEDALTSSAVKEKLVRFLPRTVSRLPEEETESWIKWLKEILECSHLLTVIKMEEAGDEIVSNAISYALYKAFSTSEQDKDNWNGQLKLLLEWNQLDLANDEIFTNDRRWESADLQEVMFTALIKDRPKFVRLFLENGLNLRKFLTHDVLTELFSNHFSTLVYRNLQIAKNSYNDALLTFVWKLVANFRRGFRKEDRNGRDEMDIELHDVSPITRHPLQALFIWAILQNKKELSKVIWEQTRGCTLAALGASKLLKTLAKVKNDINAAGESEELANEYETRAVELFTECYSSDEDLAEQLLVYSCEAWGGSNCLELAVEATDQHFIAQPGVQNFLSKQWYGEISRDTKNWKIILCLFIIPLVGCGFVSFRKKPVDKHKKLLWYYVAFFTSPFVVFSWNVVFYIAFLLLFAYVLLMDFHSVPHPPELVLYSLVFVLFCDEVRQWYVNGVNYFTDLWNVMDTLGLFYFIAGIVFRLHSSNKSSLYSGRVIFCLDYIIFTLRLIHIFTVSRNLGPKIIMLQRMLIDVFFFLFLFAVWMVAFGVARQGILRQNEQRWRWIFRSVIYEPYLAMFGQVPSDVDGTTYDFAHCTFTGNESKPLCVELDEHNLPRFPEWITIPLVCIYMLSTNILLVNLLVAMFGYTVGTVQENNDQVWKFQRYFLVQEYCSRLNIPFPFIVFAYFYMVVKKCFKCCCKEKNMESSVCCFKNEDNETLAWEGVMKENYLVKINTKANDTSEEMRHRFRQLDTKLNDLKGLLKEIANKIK
assay protocol: In vitro human TRPM8 fluorescence calcium flux assay (recombinant CHO cells, Fluo4-AM, FDSS6000)
Format: cell-based
setup conditions: recombinant CHO cells expressing human TRPM8; menthol-related EC50, normalized to 100 μM menthol
value type: EC50 (nM)

Some entries whose results are on file:
CC(C)[C@@H]1CC[C@@H](C)C[C@@]1(O)C(=O)NCCc1ccccn1 [Example 125]	42.3
CC(C)[C@@H]1CC[C@@H](C)C[C@@]1(O)C(=O)N[C@H](CO)Cc1ccccc1 [Example 146]	16
CC(C)[C@@H]1CC[C@@H](C)C[C@@]1(O)C(=O)NCCc1ccc(S(N)(=O)=O)cc1 [Example 118]	557

[A] CC(C)[C@@H]1CC[C@@H](C)C[C@@]1(O)C(=O)NC[C@H](F)c1ccccc1 [Example 179]
[B] CC(C)[C@@H]1CC[C@@H](C)C[C@@]1(O)C(=O)NCCc1cnccn1 [Example 131]
[C] [2H]C(O)(CNC(=O)[C@]1(O)C[C@H](C)CC[C@H]1C(C)C)c1ccccc1 (single isomer, unassigned) [Example 92]
[D] Cc1cccc(C(=O)CNC(=O)[C@]2(O)C[C@H](C)CC[C@H]2C(C)C)c1 [Example 141]
[E] COC(=O)CO[C@H](CNC(=O)[C@]1(O)C[C@H](C)CC[C@H]1C(C)C)c1ccccc1 [Example 57]
// query // smallest EC50 at index 0, largest at the end # answer = labels listed in requested order
// result A, D, C, E, B
(A: 1.1 nM, D: 2.7 nM, C: 4.1 nM, E: 254 nM, B: 603 nM)
